Test system: TMD8 cells
Test: MTT viability assay, TMD8 cells, 72 hours
Assay type: cell-based, human
Details: Homo sapiens, TMD8, 72 h, MTT, with 1 μmol/L cobi
EXPERIMENTAL_READOUT: IC50

stdin: Please list IC50 recorded for the molecule `C=CC(=O)N1CCC[C@@H](n2nc(-c3ccc(Oc4ccccc4)cc3)c3c(N)ncnc32)C1`
stdout: 1.1 nM

###

Experiment: In vivo pharmacokinetic study in mice, oral ibrutinib (plasma, LC-MS/MS)
Settings: male, FVB, mouse, plasma, po, 10 mg/kg, Ibrutinib AUC(0-last), male wild-type FVB mice; ibrutinib 10 mg/kg PO; co-treatment ketoconazole; mean (SD)
EXPERIMENTAL_READOUT: AUC(0-t) (ng·h/mL)
Response body: numeric value in ng·h/mL, unit text excluded.

stdin: Please list AUC(0-t) recorded for the compound `C=CC(=O)N1CCC[C@@H](n2nc(-c3ccc(Oc4ccccc4)cc3)c3c(N)ncnc32)C1`
stdout: 6640

###

Assay: In vivo pharmacokinetic study in mice, oral ibrutinib (plasma, LC-MS/MS)
Conditions: female, FVB, mouse, plasma, po, 10 mg/kg, Ibrutinib Cmax, female wild-type FVB mice; ibrutinib 10 mg/kg oral; cotreatment ketoconazole 50 mg/kg; mean (SE)
EXPERIMENTAL_READOUT: Cmax (ng/mL)
Response body: numeric value in ng/mL, unit text excluded.

stdin: Please list Cmax recorded for the compound `C=CC(=O)N1CCC[C@@H](n2nc(-c3ccc(Oc4ccccc4)cc3)c3c(N)ncnc32)C1`
stdout: 3100

###

Test: In vivo pharmacokinetic study in mice, oral ibrutinib (plasma, LC-MS/MS)
Settings: male, FVB, mouse, plasma, po, 10 mg/kg, Ibrutinib Cmax, male wild-type FVB mice; ibrutinib 10 mg/kg PO; co-treatment PEG400; mean (SD)
EXPERIMENTAL_READOUT: Cmax

stdin: Please list Cmax recorded for the compound `C=CC(=O)N1CCC[C@@H](n2nc(-c3ccc(Oc4ccccc4)cc3)c3c(N)ncnc32)C1`
stdout: 348 ng/mL

###

Experiment: In vivo pharmacokinetic study in mice, intravenous ibrutinib (plasma)
Conditions: female, FVB, mouse, plasma, iv, 1 mg/kg, Ibrutinib AUC(0-last), female wild-type FVB mice; ibrutinib 1 mg/kg IV; co-treatment corn oil; mean (SD)
EXPERIMENTAL_READOUT: AUC(0-t) (ng·h/mL)
Response body: numeric value in ng·h/mL, unit text excluded.

stdin: Please list AUC(0-t) recorded for the compound `C=CC(=O)N1CCC[C@@H](n2nc(-c3ccc(Oc4ccccc4)cc3)c3c(N)ncnc32)C1`
stdout: 521

###

Experiment: In vivo pharmacokinetic study in mice, oral ibrutinib (plasma, LC-MS/MS)
Conditions: female, FVB, mouse, plasma, po, 10 mg/kg, Ibrutinib Cmax, female CYP3A-/- mice; ibrutinib 10 mg/kg oral; cotreatment cobicistat 30 mg/kg; mean (SE)
EXPERIMENTAL_READOUT: Cmax (ng/mL)
Response body: numeric value in ng/mL, unit text excluded.

stdin: Please list Cmax recorded for the compound C=CC(=O)N1CCC[C@@H](n2nc(-c3ccc(Oc4ccccc4)cc3)c3c(N)ncnc32)C1 [Ibrutinib]
stdout: 845

###

Assay: In vivo pharmacokinetic study in mice, oral ibrutinib (plasma, LC-MS/MS)
Settings: female, FVB, mouse, plasma, po, 10 mg/kg, Ibrutinib Cmax, female wild-type FVB mice; ibrutinib 10 mg/kg oral single dose; cotreatment cobicistat 30 mg/kg; mean (SE)
EXPERIMENTAL_READOUT: Cmax (ng/mL)
Response body: numeric value in ng/mL, unit text excluded.

stdin: Please list Cmax recorded for the compound C=CC(=O)N1CCC[C@@H](n2nc(-c3ccc(Oc4ccccc4)cc3)c3c(N)ncnc32)C1 [Ibrutinib]
stdout: 1440
